# system name: mGluR2 receptor (metabotropic glutamate receptor 2) (Homo sapiens, UniProt Q14416)
# Construct: expressed in transfected cells
# Sequence (Q14416 19-872, species assumed): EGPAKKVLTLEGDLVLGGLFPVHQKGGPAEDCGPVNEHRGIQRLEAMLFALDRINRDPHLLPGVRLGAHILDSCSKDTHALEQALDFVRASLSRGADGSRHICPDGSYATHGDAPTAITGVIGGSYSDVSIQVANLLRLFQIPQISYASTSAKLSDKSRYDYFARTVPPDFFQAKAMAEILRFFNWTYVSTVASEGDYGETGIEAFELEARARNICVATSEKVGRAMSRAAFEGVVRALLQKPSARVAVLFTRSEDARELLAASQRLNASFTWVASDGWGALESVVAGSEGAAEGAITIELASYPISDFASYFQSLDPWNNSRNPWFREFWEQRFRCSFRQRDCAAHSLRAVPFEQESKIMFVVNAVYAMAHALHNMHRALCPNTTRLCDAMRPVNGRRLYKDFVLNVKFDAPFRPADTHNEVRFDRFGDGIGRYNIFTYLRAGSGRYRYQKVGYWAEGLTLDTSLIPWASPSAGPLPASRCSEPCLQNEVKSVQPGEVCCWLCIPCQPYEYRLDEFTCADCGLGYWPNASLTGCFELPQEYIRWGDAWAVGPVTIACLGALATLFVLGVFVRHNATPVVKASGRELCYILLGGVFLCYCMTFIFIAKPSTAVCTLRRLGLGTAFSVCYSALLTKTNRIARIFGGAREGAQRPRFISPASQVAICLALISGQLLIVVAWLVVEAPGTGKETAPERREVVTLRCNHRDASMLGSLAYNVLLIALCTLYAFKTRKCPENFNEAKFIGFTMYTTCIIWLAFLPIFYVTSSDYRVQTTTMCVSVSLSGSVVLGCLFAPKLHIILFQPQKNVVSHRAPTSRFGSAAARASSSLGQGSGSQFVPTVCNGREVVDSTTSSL
# test details: mGluR2 Potentiator Screen, FLIPR, EC10-EC20 glutamate challenge
# Format: cell-based
Label key: yes (1) means EC50 under 400 nM; no (0) means EC50 of 400 nM or more.

compound: CCOc1ccc(Cl)cc1C1CCN(Cc2nc3ncccc3n2C)CC1
qualitative label: no (0)

compound: CO[C@@H]1CN(Cc2nc3cnccc3n2C)CC[C@@H]1c1ccc(C(F)(F)F)cc1 (relative stereo)
qualitative label: no (0)

compound: COc1cc(C(F)(F)F)ccc1[C@H]1CCN(Cc2nc3ncccc3n2C)C[C@H]1C (relative stereo) [compound 114]
qualitative label: yes (1)

compound: C[C@@H]1CN(Cc2nc3cnccc3n2C)CC[C@@H]1c1ccc(Cl)cc1F (relative stereo) [compound 116]
qualitative label: yes (1)

compound: CC(C)Oc1ccc([C@H]2CCN(Cc3nc4ncccc4n3C)C[C@H]2C)c(Cl)c1 (single isomer, unassigned) [compound 221]
qualitative label: yes (1)

compound: C[C@@H]1CN(Cc2nc3cnccc3n2C)CC[C@@H]1c1ccc(C(F)(F)F)cc1Cl (single isomer, unassigned) [compound 172]
qualitative label: yes (1)

compound: C[C@@H]1CN(Cc2nc3cnccc3n2C)CC[C@@H]1c1cc(F)c(F)cc1F (single isomer, unassigned) [compound 226]
qualitative label: no (0)

compound: C[C@@H]1CN(Cc2nc3ncccc3n2C)CC[C@@H]1c1ccc(Cl)cc1Cl (relative stereo) [compound 155]
qualitative label: yes (1)

Q: Here's an entry: `Cn1c(CN2CCC(c3ccccc3C(F)(F)F)CC2)nc2ncccc21` . Is its EC50 below 400 nM?
Ans: yes (1)

Q: Here's an entry: `Cn1c(CN2CCC(c3ccc(Cl)cc3)CC2)nc2ncccc21` . Is its EC50 below 400 nM?
Ans: no (0)

Q: Here's an entry: `COc1cc(F)ccc1C1CCN(Cc2nc3ncccc3n2C)CC1` . Is its EC50 below 400 nM?
Ans: yes (1)

Q: Here's an entry: C[C@@H]1CN(Cc2nc3ncccc3n2C)CC[C@@H]1c1ccc(OC(F)F)cc1 (relative stereo) [compound 177] . Is its EC50 below 400 nM?
Ans: no (0)

Q: Here's an entry: Cc1ccc([C@H]2CCN(Cc3nc4ncccc4n3C)C[C@H]2C)c(Cl)c1 (relative stereo) . Is its EC50 below 400 nM?
Ans: yes (1)

Q: Here's an entry: `Cn1c(CN2CCC(c3ccccc3F)CC2)nc2cnccc21` . Is its EC50 below 400 nM?
Ans: no (0)

Q: Here's an entry: CC(C)Oc1cc(F)ccc1[C@H]1CCN(Cc2nc3cnccc3n2C)C[C@H]1C (relative stereo) . Is its EC50 below 400 nM?
Ans: no (0)

Q: Here's an entry: Cn1c(CN2CCC(c3ccc(C(F)(F)F)cc3)C(C)(C)C2)nc2ncccc21 (stereo not shown) . Is its EC50 below 400 nM?
Ans: no (0)

* * *

# system name: mGluR2 receptor (metabotropic glutamate receptor 2) (Homo sapiens)
# Construct: expressed in transfected cells
# test details: mGluR2 Potentiator Screen, FLIPR, EC10-EC20 glutamate challenge
# Type: cell-based
// reported pEC50 for each item listed
To interpret pEC50, take it as minus log10 of a concentration measured in moles per litre.

compound: C[C@@H]1CN(Cc2nc3cnccc3n2C)CC[C@@H]1c1ccc(C(F)(F)F)cc1 (relative stereo) [compound 71]
system name: mGluR2 receptor (metabotropic glutamate receptor 2) (Homo sapiens)
pEC50: 7.12

compound: C[C@@H]1CN(Cc2nc3ncccc3n2C)CC[C@@H]1c1ccc(F)c(Cl)c1 (relative stereo) [compound 111]
system name: mGluR2 receptor (metabotropic glutamate receptor 2) (Homo sapiens)
pEC50: 6.69

compound: CCOc1ccc(Cl)cc1C1CCN(Cc2nc3cccnc3n2C)CC1 [compound 42]
system name: mGluR2 receptor (metabotropic glutamate receptor 2) (Homo sapiens)
pEC50: 6.30

Q: mGluR2 receptor (metabotropic glutamate receptor 2) (Homo sapiens) / pEC50 / C[C@@H]1CN(Cc2nc3nccc4c3n2CCC4)CC[C@@H]1c1ccc(Cl)cc1F (relative stereo) [Example 129] : value?
Ans: 7.90

Q: mGluR2 receptor (metabotropic glutamate receptor 2) (Homo sapiens) / pEC50 / COc1ccccc1C1CCN(Cc2nc3ncccc3n2C)CC1C (stereo not shown) [compound 60] : value?
Ans: 6.52

* * *

# system name: mGluR2 receptor (metabotropic glutamate receptor 2) (Homo sapiens)
# Construct: expressed in transfected cells
# test details: mGluR2 Potentiator Screen, FLIPR, EC10-EC20 glutamate challenge
# Format: cell-based
# settings: mGluR2 potentiator screen, FLIPR, EC10-EC20 glutamate challenge
measured quantity: EC50

compound: CC(C)Oc1ccc(C2CCN(Cc3nc4cnccc4n3C)CC2)c(F)c1
EC50: 125 nM

compound: Cn1c(CN2CCC(c3ccc(OC(F)F)cc3)CC2)nc2ncccc21
EC50: 554 nM

compound: Cn1c(CN2CCC(c3c(F)cccc3C(F)(F)F)CC2)nc2ncccc21
EC50: 212 nM

Q: Consider the compound `COc1cc(C2CCN(Cc3nc4ncccc4n3C)CC2)ccc1C(F)(F)F` and give its measured EC50.
Ans: 289 nM

Q: Consider the compound C[C@@H]1CN(Cc2nc3ncccc3n2C)CC[C@@H]1c1ccc(OC(F)(F)F)cc1Cl (single isomer, unassigned) [compound 256] and give its measured EC50.
Ans: > 704 nM

Q: Consider the compound `Cn1c(CN2CCC(c3ccc(C(F)(F)F)cc3Cl)CC2)nc2cnccc21` and give its measured EC50.
Ans: 85 nM

Q: Consider the compound C[C@@H]1CN(Cc2nc3cnccc3n2C)CC[C@@H]1c1ccc(OC(F)F)cc1Cl (single isomer, unassigned) [compound 246] and give its measured EC50.
Ans: 99.9 nM

Q: Consider the compound `COc1cc(OC(F)(F)F)ccc1C1CCN(Cc2nc3ncccc3n2C)CC1` and give its measured EC50.
Ans: 99.7 nM

Q: Consider the compound C[C@@H]1CN(Cc2nc3cnccc3n2C)CC[C@@H]1c1ccc(OC(F)F)cc1Cl (single isomer, unassigned) [compound 247] and give its measured EC50.
Ans: > 1410 nM

* * *

# system name: mGluR2 receptor (metabotropic glutamate receptor 2) (Homo sapiens, UniProt Q14416)
# Construct: expressed in transfected cells
# test details: mGluR2 Potentiator Screen, FLIPR, EC10-EC20 glutamate challenge
# Assay type: cell-based
// reported EC50 for each item listed
Value expressed in nM; do not type the unit.

See these solved cases before continuing.
compound: FC(F)(F)c1ccc(C2CCN(Cc3nc4nccc5c4n3CCC5)CC2)cc1
EC50 (nM): 62.6
//
compound: C[C@@H]1CN(Cc2nc3ncccc3n2C)CC[C@@H]1c1cc(F)c(F)cc1F (relative stereo)
EC50 (nM): 381

// below: EC50 requested for another compound
Q: Consider the compound `COc1ccc(C2CCN(Cc3nc4ncccc4n3C)CC2)cc1` and give its measured EC50.
Ans: 9770

* * *

# system name: mGluR2 receptor (metabotropic glutamate receptor 2) (Homo sapiens)
# Construct: expressed in transfected cells
# test details: mGluR2 Potentiator Screen, FLIPR, EC10-EC20 glutamate challenge
# Format: cell-based
Label key: y means EC50 under 300 nM; n means EC50 of 300 nM or more.

The examples below pair each entry with its known result.
molecule: Cn1c(CN2CCC(c3ccc(Cl)cc3F)CC2)nc2cccnc21 [compound 112]
qualitative label: y
//
molecule: CC(C)Oc1ccc([C@H]2CCN(Cc3nc4ncccc4n3C)C[C@H]2C)c(Cl)c1 (relative stereo) [compound 169]
qualitative label: y
//
molecule: C[C@@H]1CN(Cc2nc3ncccc3n2C)CC[C@@H]1c1ccc(C(F)(F)F)cc1Cl (single isomer, unassigned) [compound 163]
qualitative label: n
//
molecule: Cn1c(CN2CCC(c3cc(C(F)(F)F)ccc3F)CC2)nc2cnccc21 [compound 57]
qualitative label: n
//
molecule: Cn1c(CN2CCC(c3cccc(C(C)(C)C)c3)CC2)nc2ncccc21 [compound 79]
qualitative label: y

Q: Here's an entry: Cn1c(CN2CCC(c3ccc(C(F)(F)F)cc3)CC2)nc2ncccc21 [compound 52] . Is its EC50 below 300 nM?
Ans: y

Q: Here's an entry: Cc1ccccc1C1CCN(Cc2nc3ncccc3n2C)CC1 [compound 89] . Is its EC50 below 300 nM?
Ans: n

* * *

# system name: mGluR2 receptor (metabotropic glutamate receptor 2) (Homo sapiens)
# Construct: expressed in transfected cells
# test details: mGluR2 Potentiator Screen, FLIPR, EC10-EC20 glutamate challenge
# Assay type: cell-based
pEC50: −log10 of the molar value.
measured quantity: pEC50

molecule: C[C@@H]1CN(Cc2nc3ncccc3n2C)CC[C@@H]1c1ccc(C(F)(F)F)cc1Cl (single isomer, unassigned) [compound 162]
result value: > 7.74

Q: Consider the molecule CC(C)Oc1ccc([C@H]2CCN(Cc3nc4ncccc4n3C)C[C@H]2C)c(F)c1 (relative stereo) [compound 166] and give its measured pEC50.
Ans: 7.08

Q: Consider the molecule CC(C)Oc1ccc([C@H]2CCN(Cc3nc4ncccc4n3C)C[C@H]2C)c(F)c1 (single isomer, unassigned) [compound 218] and give its measured pEC50.
Ans: < 6.04
